- Test system: UACC-257 melanoma
- experimental protocol: NCI-60 one-dose screen, 48 h
- condition: 10 µM unless noted
- Procedure: Cells are grown in 96 well plates and exposed to the test compound for 48 hours. Compounds are tested at a single concentration, which is 10^-5 M for most compounds. The reported endpoint is percent growth (GI% or GIPRCNT), where numbers from 0 - 100% represent growth inhibition, and numbers from -100% - 0 represent cell death. For example, a value of 40 represents 60% growth inhibition. A value of 0 means no net growth occurred over the course of the experiment. […]
This is part of a sample that, as a whole, favours compounds with a hit. Of some 83,000 tested, about 20% had one in any assay. The source made the active and inactive calls. Rule for the calls: active = growth percent below 10; inactive = the rest.
// one of TRUE = active, FALSE = inactive, no free text

Solved cases below.
COc1cccc(N=CNc2cccc(OC)c2)c1
FALSE
O=Cc1ccc(F)cc1
FALSE
COc1cc2c(c(OC)c1OC)-c1ccc(SC)c(=O)cc1[C@@H](NC1OC(CO)C(O)C(O)C1O)CC2 (stereo partly drawn)
FALSE

Note: attention shifts to another entry.
QUERY: Answer briefly: the call reported for `Nc1cc2c(cc1Cl)C(=O)c1ccccc1C2=O` in this assay.
RESULT: FALSE

* * *

- Tested on: SK-MEL-28 melanoma
- experimental protocol: NCI-60 one-dose screen, 48 h (100 = growth as untreated, 0 = no growth, -100 = all killed)
- condition: 10 µM unless noted
About 83,000 compounds went through this panel and 20% of them were active in at least one assay; those are over-represented in the sample as a whole.
growth reference
Record the value in %, omitting the unit from your answer.

Here is how some molecules turned out for growth.
CCN(C(C)=O)c1ccc([N+](=O)[O-])cc1
106
CN(C)c1ccc(/C=C/C(=O)c2ccc(NC(N)=O)cc2)cc1
104
Oc1ccc(CCC2CCNc3ccccc32)cc1 (stereo not drawn)
94.4
C=CCC(OC(C)=O)c1ccc(OC)c(OC)c1 (stereo not drawn)
132
CCOP(=O)(NC(c1ccccc1)c1ccccc1)OCC
106
COC1OC(COC(C)=O)C(OC(C)=O)C(OC(C)=O)C1OC(C)=O (stereo not drawn)
94.2
COc1ccc(Br)c(C=O)c1
86
O=C(Nc1cccc(Cl)c1)c1ccc(Cl)cc1Cl
101

QUERY: Quick check: growth of `O=C1CSc2ccccc2N1` ?
RESULT: 105

QUERY: Quick check: growth of `O=C(c1ccccc1O)N1CCCC1` ?
RESULT: 98.5

QUERY: Quick check: growth of `O=Cc1c(O)c2ccccc2[nH]c1=O` ?
RESULT: 107

QUERY: Quick check: growth of `CC(CCC#N)(CCC#N)C(=O)c1ccccc1` ?
RESULT: 119

QUERY: Quick check: growth of `COc1ccc(NNS(=O)(=O)O)cc1` ?
RESULT: 107

QUERY: Quick check: growth of `O=[n+]1ccn([O-])c2ccccc21` ?
RESULT: 108

QUERY: Quick check: growth of `C(=C\c1ccncc1)/c1ccncc1` ?
RESULT: 104

QUERY: Quick check: growth of `COc1cc(C(=O)O)c(O)c(C(C)(C)C)c1` ?
RESULT: 109

QUERY: Quick check: growth of `Nc1ncnc(Nc2ccc(C(F)(F)F)cc2)n1` ?
RESULT: 104

QUERY: Quick check: growth of `Cc1cc(Cl)cc(Cc2cc(Cl)cc(C)c2O)c1O` ?
RESULT: 22.6

QUERY: Quick check: growth of `Oc1cccc(CNC2CCCCC2)c1` ?
RESULT: 110

QUERY: Quick check: growth of `CC(=O)N(C)N=Nc1ccc(C)cc1` ?
RESULT: 116

QUERY: Quick check: growth of CC1CCC(C)(C)c2ccccc21 (stereo not drawn) ?
RESULT: 97.3

QUERY: Quick check: growth of CC(C)(C)CC1(C)NC(=O)NC1=O (stereo not drawn) ?
RESULT: 116

QUERY: Quick check: growth of `Nc1c(O)c(S(=O)(=O)O)c(O)c2c1C(=O)c1ccccc1C2=O` ?
RESULT: 42.5

* * *

- System: MDA-MB-231 breast
- experimental protocol: NCI-60 one-dose screen, 48 h (100 = growth as untreated, 0 = no growth, -100 = all killed)
- condition: 10 µM unless noted
Compounds without any hit were thinned out: in the full panel of roughly 83,000, 20% have a hit.
parameter: growth (%)
Record the value in %, omitting the unit from your answer.

C=CCS(C)(=O)=O
97.9
Oc1cccnc1CN1CCCC1
105

Okay, now this compound:
QUERY: Quick check: growth of `C=COC(=O)C(C)(C)C` ?
RESULT: 113

* * *

- Test system: UO-31 renal
- experimental protocol: NCI-60 one-dose screen, 48 h (100 = growth as untreated, 0 = no growth, -100 = all killed)
- condition: 10 µM unless noted
About 83,000 compounds went through this panel and 20% of them were active in at least one assay; those are over-represented in the sample as a whole. Activity calls are given as the source filed them. Rule for the calls: active = growth percent below 10; inactive = the rest.
growth reference

QUERY: Quick check: growth of `Cc1ccc(S(=O)(=O)CCCl)cc1` ?
RESULT: 74.2% (inactive)

QUERY: Quick check: growth of `CN(C)c1ncnc2c1cnn2C` ?
RESULT: 90.6% (inactive)

QUERY: Quick check: growth of `C[n+]1c(/C=C\C=C\N2CCCCC2)sc2ccccc21` ?
RESULT: 52.1% (inactive)

* * *

- Test system: MDA-MB-231 breast
- experimental protocol: NCI-60 one-dose screen, 48 h (100 = growth as untreated, 0 = no growth, -100 = all killed)
- condition: 10 µM unless noted
About 83,000 compounds went through this panel and 20% of them were active in at least one assay; those are over-represented in the sample as a whole. Active and inactive are the calls of the source. Rule for the calls: active = growth percent below 10; inactive = the rest.
growth reference

Here is how some molecules turned out for growth.
CCCC1OC(c2ccco2)OCC1CC (configuration not stated)
102% (inactive)
CCOC(=O)/C(O)=C(\C=N\C(=S)Nc1ccc(Cl)c(Cl)c1)C(=O)OCC
94.3% (inactive)
CC(C)c1ncc([N+](=O)[O-])n1C
118% (inactive)
OCC(O)COc1ccc(Cl)cc1Cl (configuration not stated)
97.8% (inactive)
CN1C(=O)NC(c2ccc(Cl)cc2)(c2ccc(Cl)cc2)C1=O
99.8% (inactive)
O=c1nc(Nc2cccc(Cl)c2)oc2cc(Cl)oc(=O)c12
50.9% (inactive)

QUERY: Quick check: growth of `N#Cc1ccc2nc[nH]c2c1` ?
RESULT: 120% (inactive)

QUERY: Quick check: growth of `OC(CCN1CCCCC1)(c1ccccc1)c1ccccc1` ?
RESULT: 105% (inactive)

QUERY: Quick check: growth of CN1CCCN(C(c2ccccc2)c2ccc(Cl)cc2)CC1 (configuration not stated) ?
RESULT: 95.8% (inactive)

QUERY: Quick check: growth of CC1CCC(C(C)(C)[N+](C)(C)C)CC1 (configuration not stated) ?
RESULT: 103% (inactive)

QUERY: Quick check: growth of `CCOC(=O)CNC` ?
RESULT: 97.8% (inactive)

QUERY: Quick check: growth of `CC(C)Sc1ncnc2nc[nH]c12` ?
RESULT: 105% (inactive)

QUERY: Quick check: growth of CN=S(=O)(OCCCCCOS(=O)(=NC)c1ccc(C)cc1)c1ccc(C)cc1 (configuration not stated) ?
RESULT: 97.2% (inactive)

* * *

- Tested on: SK-MEL-5 melanoma
- experimental protocol: NCI-60 one-dose screen, 48 h (100 = growth as untreated, 0 = no growth, -100 = all killed)
- condition: 10 µM unless noted
Compounds without any hit were thinned out: in the full panel of roughly 83,000, 20% have a hit. Activity calls are given as the source filed them. How the source made its calls: active means growth percent below 10; inactive means the rest.
parameter: growth

Here is how some molecules turned out for growth.
CC(=O)c1cc(O)ccc1O
113% (inactive)
O=C(O)c1cc(I)ccc1O
103% (inactive)

Okay, now this molecule:
QUERY: Quick check: growth of `OCc1cccnc1` ?
RESULT: 116% (inactive)

* * *

- Test system: UO-31 renal
- experimental protocol: NCI-60 one-dose screen, 48 h
- condition: 10 µM unless noted
The panel holds about 83,000 compounds, 20% with a hit somewhere; the sample as a whole holds those more often. Activity calls are given as the source filed them. How the source made its calls: active means growth percent below 10; inactive means the rest.
// one of yes (1) for active, no (0) for inactive, no free text

Nc1ccc(F)c(Cl)c1F
no (0)
CC(=O)Nc1ccc(O)c(C)c1
no (0)
Cc1ccc(OC(=O)c2ccccc2)cc1
no (0)

QUERY: Answer briefly: the call reported for CC(=O)OC(C)c1cccc(C#N)c1 (stereo unspecified) in this assay.
RESULT: no (0)

QUERY: Answer briefly: the call reported for CC(=O)NC(O)C(Cl)Cl (stereo unspecified) in this assay.
RESULT: no (0)

QUERY: Answer briefly: the call reported for `O=c1cc(C(F)(F)F)[nH]c(=S)[nH]1` in this assay.
RESULT: no (0)

QUERY: Answer briefly: the call reported for NC(=S)c1c(N)n(C2OC(CO)C(O)C2O)c2ncnc(N)c12 (stereo unspecified) in this assay.
RESULT: yes (1)

QUERY: Answer briefly: the call reported for `CC(C)NC(=O)OCc1c(COC(=O)NC(C)C)c(-c2ccc(Cl)cc2)n2c1CCC2` in this assay.
RESULT: no (0)
